- Subject Of Test: Human enkephalin-degrading aminopeptidase (HEDA)
- Test Summary: IC50 with human enkephalin-degrading aminopeptidase
- Assay Setup: incubated at 37° for 2 hours, pH 7.8, substrate leu-enkephalin, HPLC
Where a name gives a salt, the structure may show the parent alone.
Experimental Endpoint: pIC50
Note: pIC50 values are expressed as the negative base-10 logarithm of concentration in M.

Worked examples, 4 molecules total:
>>> print(df.to_string())
                                   molecule  measured_value
0  CC(N)B1OC(C)(C)C(C)(C)O1 (centres unmarked) [5 (R=CH3), trifluoroacetic acid salt]            7.15
1  CC(C)C(N)B1OC(C)(C)C(C)(C)O1 (centres unmarked) [5 (R=CH(CH3)2), trifluoroacetic acid salt]            7.38
2  CCC(C)C(N)B1OC(C)(C)C(C)(C)O1 (centres unmarked) [5 (R=CH(CH3)C2 H5), trifluoroacetic acid salt]            7.39
3  CC(C)CC(N)B1OC(C)(C)C(C)(C)O1 (centres unmarked) [5 (R=CH2 CH(CH3)2), trifluoroacetic acid salt]            8.13

Continue with the next molecule.
Query block: Name the reported pIC50 value associated with the molecule CC1(C)OB(C(N)Cc2ccccc2)OC1(C)C (centres unmarked) [5 (R=CH2 C6 H5), trifluoroacetic acid salt]
Result block: 8.28
